test description: Rat model of nasopharyngitis induced by formalin (nasal mucosa changes, cell elements in nasal lavage)
Format: in vivo
assay context: Wistar rats, 18 mg/kg for 3 days, number of animals out of n = 10, control 0 of 20
Experimental: Nasopharyngitis was induced by intranasal administration of formalin to each nasal passage of rats. […] After euthanasia, the inflammation pattern in the nasal passages and throat was studied in each group of animals. The nasal passages were washed with 5 mL of physiological solution and the score of cell elements were counted in 1 μL.
Starred links: 1 amine or outer side, 2 acyl side, 3 side chain; linkers in the order of their positions; H or OH if unused. Non-standard residues stand in square brackets, D forms with d. Residues, ends and D or L forms follow the SMILES beside them. ξ: configuration not given here. Glutaryl = O=C(CCCC(=O)[*:2])[*:1]; ξH = NC(Cc1c[nH]cn1)C(=O)O
readout label: Mucous membrane of nasal passages: Without changes (number of animals)

molecule	numeric result
COC(=O)CNC(=O)C(Cc1c[nH]cn1)NC(=O)CCCC(=O)O (stereo not drawn) [Compound 193] (Glutaryl-[ξH]-Gly-OMe)	6
O=C(O)CCCC(=O)NCCCc1cccs1	3
CC(C)(CCC(=O)NCCc1cnc[nH]1)C(=O)O	4
CC(NC(=O)C(Cc1cnc[nH]1)NC(=O)CCCC(=O)O)C(N)=O (stereo not drawn) [Compound 92] (Glutaryl-His-Ala-NH2; configuration not given here)	6
NCCCC(=O)NCCCc1cccs1	3
CC(C)N(CCc1cnc[nH]1)C(=O)CCCC(=O)O	4
O=C(O)CCCC(=O)NCCC1CCCCN1 (stereo not drawn)	4
CC(Cc1cnc[nH]1)NC(=O)CCCC(=O)O (stereo not drawn)	3
O=C(O)CCCC(=O)NCCc1cocn1	7
O=C(O)CCCC(=O)NCCC1CCCNC1 (stereo not drawn)	5
O=C(O)CCCC(=O)NCCc1nc2ccccc2s1	3
O=C(O)CCCC(=O)NCCc1cnccn1	5
O=C(O)CCCC(=O)NCCc1cn[nH]n1	4
O=C(O)CCCC(=O)NCCC1CCNCC1	6
O=C(O)CCCNC(=O)CCc1cnc[nH]1	3
O=C(O)CCCC(=O)NCCC1CCCN1 (stereo not drawn)	3
Cc1csc(CCNC(=O)CCCC(=O)O)n1	6
O=C(O)CCCC(=O)NCCc1cc[nH]n1	7
COC(=O)C(CO)NC(=O)C(Cc1cnc[nH]1)NC(=O)CCCC(=O)O (stereo not drawn) [Compound 149] (Glutaryl-His-Ser-OMe; configuration not given here)	5
O=C(O)CCCC(=O)NCCCc1c[nH]cn1	5
O=C(O)CCCC(=O)NC(Cc1c[nH]cn1)C(=O)O (stereo not drawn)	4

###

Tested on: Staphylococcus aureus
test description: Murine model of staphylococcal pneumonia (bacterial growth from lung imprints)
Format: in vivo, outbred mice
assay context: 15 mg/kg orally, 5 days before and 2 days after S. aureus infection; lung imprints on Columbia agar; control 82.5
Experimental: The efficiency of the compounds was evaluated in outbred mice (females) infected with Staphylococcus aureus (mouse-adapted strain). The administration of the compounds was started 5 days before infection, orally at doses of 15 and 30 mg/kg in a volume of 0.2 mL. […] The intensity of bacterial growth was evaluated in scores and expressed in %.
readout label: Bacterial growth, in %

> print(dat)
                                   molecule           readout.label  result
1  O=C(O)CCCC(=O)NC(Cc1c[nH]cn1)C(=O)O (stereo not drawn)  Bacterial growth, in %     55%
2            O=C(O)CCCC(=O)NCCc1nc2ccccc2s1  Bacterial growth, in %     35%
3               Cc1csc(CCNC(=O)CCCC(=O)O)n1  Bacterial growth, in %     45%
